assay: Microsome clearance assay, human; type: in vitro ADME; conditions: human liver microsomes, 0.5 mg/ml protein, 5 μM, 1 mM NADPH, 60 minutes
Human Liver Microsome Clint (μL/min/mg protein) by entry:
Give the value in μL/min/mg protein but do not write μL/min/mg protein after it.

Value of measured Human Liver Microsome Clint (μL/min/mg protein) for the entry Cc1c(C(=O)O)n2c3ccc(Cl)c(c13)-c1c(nn(C)c1C)CSCc1cc(n(C)n1)CSc1cc(c3ccccc3c1)OCCC2 (atropisomer, axis not shown) [Cpd. No. 7] : 38.0

// next item, Human Liver Microsome Clint (μL/min/mg protein) requested
Human Liver Microsome Clint (μL/min/mg protein) for Cc1c(C(=O)O)n2c3ccc(Cl)c(c13)-c1c(nn(C)c1C)CSCc1cc(n(C)n1)CSc1cc(c3ccc(F)cc3c1)OCCC2 (atropisomer, axis not shown) [Cpd. No. 16] is 23.4
